# credit: the supplement of paper PMC10065799

Target: EPHB2 (UniProt P29323)
Sequence (P29323 whole entry, looked up): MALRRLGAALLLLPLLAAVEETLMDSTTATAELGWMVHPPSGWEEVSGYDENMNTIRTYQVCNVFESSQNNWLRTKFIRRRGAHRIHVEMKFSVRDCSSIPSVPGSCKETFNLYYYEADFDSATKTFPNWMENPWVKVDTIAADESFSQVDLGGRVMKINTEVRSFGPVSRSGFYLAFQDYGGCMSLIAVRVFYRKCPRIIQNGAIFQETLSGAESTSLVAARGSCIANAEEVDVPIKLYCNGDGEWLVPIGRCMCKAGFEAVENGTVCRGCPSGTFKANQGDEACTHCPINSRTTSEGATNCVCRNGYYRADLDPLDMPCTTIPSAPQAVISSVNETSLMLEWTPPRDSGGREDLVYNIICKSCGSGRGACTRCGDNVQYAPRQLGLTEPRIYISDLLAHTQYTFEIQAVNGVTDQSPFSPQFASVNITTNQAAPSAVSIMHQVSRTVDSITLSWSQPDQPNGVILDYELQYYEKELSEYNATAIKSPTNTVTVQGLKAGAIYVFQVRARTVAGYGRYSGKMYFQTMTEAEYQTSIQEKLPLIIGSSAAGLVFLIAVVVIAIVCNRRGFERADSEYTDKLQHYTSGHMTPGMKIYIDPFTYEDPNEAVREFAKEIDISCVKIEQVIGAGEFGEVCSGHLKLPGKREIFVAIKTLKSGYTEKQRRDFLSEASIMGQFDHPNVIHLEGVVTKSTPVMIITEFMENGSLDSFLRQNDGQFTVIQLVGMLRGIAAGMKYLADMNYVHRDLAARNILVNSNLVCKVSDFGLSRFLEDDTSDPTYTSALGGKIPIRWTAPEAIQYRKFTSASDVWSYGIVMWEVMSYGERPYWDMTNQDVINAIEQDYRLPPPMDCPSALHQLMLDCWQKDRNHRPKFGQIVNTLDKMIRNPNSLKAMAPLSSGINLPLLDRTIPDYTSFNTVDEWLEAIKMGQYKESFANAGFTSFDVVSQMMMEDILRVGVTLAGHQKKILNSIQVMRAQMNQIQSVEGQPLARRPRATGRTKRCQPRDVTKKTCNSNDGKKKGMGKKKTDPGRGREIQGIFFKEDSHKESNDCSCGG
Test: phosphorylation enrichment, bacterial display (enrichment ratio); higher = better substrate or ligand; peptides without Tyr show the background;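 note: 11-residue human phosphosite peptides and single-mutation variants displayed on the E. coli surface, counted by deep sequencing, each peptide's frequency after selection divided by its frequency in the unselected input library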;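 note: frequency after pTyr selection over input frequency; kinase dosed for 20-30% of maximal phosphorylation in three min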
Decision: phosphorylation enrichment compared against 0.7; not below it gives Criterion met, below it gives Criterion not met.

Recorded results for 8 sequences are shown here.
EPNSRYTFKLE [USH2A_Y3745_YF]	Criterion not met
IVAREYYSDAD [CAMK2A_Y106_E109D]	Criterion not met
HFGNNYTDVLQ [MACC1_Y803_R804T_YF]	Criterion not met
YGAHNYHPLPV [OAT_Y55]	Criterion met
AFQGKYTPSGQ [ALDOA_Y343_C339Y_YF]	Criterion not met
IFSGIYFKPES [L2HGDH_Y102_H98Y_YF]	Criterion met
LRFKQYLRNPP [SHC1_Y315]	Criterion met
IKKFKYRIEEH [GJA1_Y137_G138R]	Criterion not met

Qu. Determine whether measured phosphorylation enrichment meets or exceeds 0.7 for PFRKLYESVKK [MKI67_Y241_W238R]
Ans. Criterion not met

Qu. Determine whether measured phosphorylation enrichment meets or exceeds 0.7 for AGIVDYNIIGW [MYH7_Y588]
Ans. Criterion not met

Qu. Determine whether measured phosphorylation enrichment meets or exceeds 0.7 for DPADRYLTEQY [CDKL5_Y286_C291Y]
Ans. Criterion not met

Qu. Determine whether measured phosphorylation enrichment meets or exceeds 0.7 for QDTSRYTVCNL [BIRC3_Y245_S248C]
Ans. Criterion not met

Qu. Determine whether measured phosphorylation enrichment meets or exceeds 0.7 for AVHPGYGFLSE [PCCA_Y143]
Ans. Criterion not met
